- METHOD_DESCRIPTION: protection against thapsigargin ER stress killing – CSM14.1 cells, ATP luminescence, primary screen (AID 1010);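 also: cell death triggered by about 15 µM thapsigargin; ATP read 24 h after thapsigargin was added; plate controls were thapsigargin with DMSO for no effect and DMSO without thapsigargin for full effect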
- STATED_CONDITIONS: CSM14.1 thapsigargin ER stress survival, active compounds read high, screened at 15 µg/mL (by protocol)
Among all 48,000 compounds or so, about 160 (0.33%) were called active. For the sample, actives were picked, then their nearest neighbours and some compounds at random.
We begin with a simple list: items and their reported relative survival (cellular ATP).
Numeric answer only, unit % assumed.

Study these solved cases before continuing.
C/C(CC(=O)Nc1ccc(Nc2ccccc2)cc1)=N\NC(=O)c1ccccc1C = 16.5
CN(C)c1cccc(C(=O)N2CCN(c3cccc(Cl)c3)CC2)c1 = -2.8
COc1ccc(C2CC(c3cccs3)=NN2c2ccc(F)cc2)cc1OC (centres undefined) = 3.6

Now consider a different compound.
Q: Given the compound CCO/N=C1/CC(c2ccccc2)Cc2onc(C)c21 (centres undefined) , what is its reported relative survival (cellular ATP)?
Ans: 13.2

----------
- METHOD_DESCRIPTION: protection against thapsigargin ER stress killing – CSM14.1 cells, ATP luminescence, primary screen (AID 1010);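 also: cell death triggered by about 15 µM thapsigargin; ATP read 24 h after thapsigargin was added; plate controls were thapsigargin with DMSO for no effect and DMSO without thapsigargin for full effect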
- STATED_CONDITIONS: CSM14.1 thapsigargin ER stress survival, active compounds read high, screened at 15 µg/mL (by protocol)
Among all 48,000 compounds or so, about 160 (0.33%) were called active. Many of the other results were omitted from the sample, so actives are more common in it than they were.
RESULT_TYPE: relative survival (cellular ATP) (%)
Numeric answer only, unit % assumed.

Some entries whose results are on file:
CCOC(=O)C1=NN(C(=O)c2ccc(Cl)cc2)C(O)(C(C)(C)C)C1 (stereo not given) = 11.8
CCN(C(=O)c1ccccc1)c1ccccc1 = -4.6
Cc1c(C(=O)Nc2ccc(NC(=O)c3ccc(C(C)(C)C)cc3)cc2)cccc1[N+](=O)[O-] = 0.1
COC(=O)c1ccc(/C=C2\SC(=S)N(CCCC(=O)Nc3nccs3)C2=O)cc1 = -4
COCCCN1C(=O)c2cccc3cccc(c23)C1=O = 0.8
COc1ccc(Br)cc1-c1nc2nnc(C)n2[nH]1 = 7.4

Q: # get_value(readout='relative survival (cellular ATP)', item= COc1cc(C2NC(=S)NC(C)=C2C(=O)Nc2ccccc2)ccc1O (stereo not given) )
Ans: 3.8

Q: # query: relative survival (cellular ATP) of entry CC1(C)Nc2ccc(OC(=O)c3ccccc3Br)cc2-c2c1ssc2=S
Ans: -1

Q: // returns reported relative survival (cellular ATP) for input COc1cc(C2Nc3ccc4ccccc4c3C3=C2C(=O)CC(C)(C)C3)c(Br)cc1O (stereo not given)
Ans: 1.3

----------
- METHOD_DESCRIPTION: protection against thapsigargin ER stress killing – CSM14.1 cells, ATP luminescence, primary screen (AID 1010);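 also: cell death triggered by about 15 µM thapsigargin; ATP read 24 h after thapsigargin was added; plate controls were thapsigargin with DMSO for no effect and DMSO without thapsigargin for full effect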
- STATED_CONDITIONS: CSM14.1 thapsigargin ER stress survival, screened at 15 µg/mL (by protocol)
The campaign covered roughly 48,000 compounds. About 160 (0.33%) were called active.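 Rule for the calls: active = survival measured by cellular ATP above 50% at 15 µg/ml in the first screen; inactive = the rest.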 The full list was thinned out, with actives kept by preference.
// classify into 1 (yes) (active), 0 (no) (inactive)

The following molecules have reported results that may help.
CCOc1cc(OCC)cc(C(=O)Nc2cc3nn(-c4ccc(OC)cc4)nc3cc2C)c1 = 0 (no)
O=C(CCc1ccccc1)Nc1ccccc1-c1ccccc1 = 0 (no)
Cn1nc(-c2ccc(Br)cc2)cc1N = 0 (no)
COc1ccc(C2C3=C(CC(C)(C)CC3=O)Nc3ccccc3N2C(=O)c2ccc(Cl)cc2)cc1OC (stereo unspecified) = 1 (yes)
C/C(Cn1nnc([N+](=O)[O-])n1)=N/NC(=O)Cc1ccccc1 = 0 (no)

// next entry
Q: Assay outcome for CCOc1cccc(-c2cc(C(=O)N3CCCCCC3)c3ccccc3n2)c1 : what was it?
Ans: 0 (no)

meta.source: PubChem BioAssay AID1010
